Molecular target: UGT78G1 (Medicago truncatula)
Experiment: Kinetic analysis of UGT78G1 (GT83F) with (iso)flavonoid acceptor substrates, UDP-[14C]-glucose donor
Conditions: recombinant UGT78G1, donor UDP-glucose, 30° C., pH 7.0
Binary label based on Kcat with cut-off 0.01 s⁻¹: below gives YES, not below gives NO.

Example results:
SAMPLE_SMILES	TEST_SYSTEM	CAT
O=c1c(O)c(-c2ccc(O)cc2)oc2cc(O)cc(O)c12	UGT78G1 (Medicago truncatula)	NO
O=c1c(O)c(-c2ccc(O)c(O)c2)oc2cc(O)cc(O)c12	UGT78G1 (Medicago truncatula)	NO
COc1ccc(-c2coc3cc(O)ccc3c2=O)cc1	UGT78G1 (Medicago truncatula)	YES
Oc1ccc(-c2[o+]c3cc(O)cc(O)c3cc2O)cc1	UGT78G1 (Medicago truncatula)	YES

query: Say whether its Kcat is strictly beneath 0.01 s⁻¹. Entry: COc1ccc(-c2coc3cc(O)cc(O)c3c2=O)cc1
result: NO

query: Item O=c1c(-c2ccc(O)cc2)coc2cc(O)cc(O)c12 : Kcat beneath 0.01 s⁻¹, strictly?
result: YES

====

Molecular target: UGT78G1 (Medicago truncatula, UniProt A6XNC6)
Sequence (A6XNC6 whole entry, the tested form may be a part): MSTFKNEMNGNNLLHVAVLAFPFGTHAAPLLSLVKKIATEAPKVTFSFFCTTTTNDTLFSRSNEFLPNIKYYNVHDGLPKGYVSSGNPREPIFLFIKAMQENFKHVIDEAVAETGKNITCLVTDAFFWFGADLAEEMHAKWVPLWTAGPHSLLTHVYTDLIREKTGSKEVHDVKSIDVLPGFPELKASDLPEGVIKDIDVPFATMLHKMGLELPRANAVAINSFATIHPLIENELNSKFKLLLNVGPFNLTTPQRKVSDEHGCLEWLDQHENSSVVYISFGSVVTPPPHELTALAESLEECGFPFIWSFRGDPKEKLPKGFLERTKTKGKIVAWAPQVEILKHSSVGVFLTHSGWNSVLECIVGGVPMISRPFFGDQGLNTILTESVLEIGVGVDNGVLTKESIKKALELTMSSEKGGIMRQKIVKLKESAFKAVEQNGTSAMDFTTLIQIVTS
Assay: Kinetic analysis of UGT78G1 (GT83F) with (iso)flavonoid acceptor substrates, UDP-[14C]-glucose donor
Settings: recombinant UGT78G1, donor UDP-glucose, 30° C., pH 7.0
VALUE_TYPE: log10 Vmax (log10 of the value in µmol/min)
Hey, these are logged values: log10 of Vmax, µmol/min being the unit before logging.

Examples with answers:
COMPOUND	VALUE_TYPE	MEASURED
Oc1ccc(-c2[o+]c3cc(O)cc(O)c3cc2O)cc1 [pelargonidin]	log10 Vmax	-0.77
COc1ccc(-c2coc3cc(O)ccc3c2=O)cc1 [formononetin]	log10 Vmax	-1.06
O=c1c(O)c(-c2ccc(O)cc2)oc2cc(O)cc(O)c12 [kaempferol]	log10 Vmax	0.20
O=c1c(O)c(-c2ccc(O)c(O)c2)oc2cc(O)cc(O)c12 [quercetin]	log10 Vmax	-0.07
COc1ccc(-c2coc3cc(O)cc(O)c3c2=O)cc1 [biochanin A (4′-methoxy genistein)]	log10 Vmax	-0.44

We next turn to a different compound, shown below.
Summary for this compound, O=c1c(-c2ccc(O)cc2)coc2cc(O)cc(O)c12 [genistein] : log10 Vmax is 0.08

====

Target: UGT78G1 (Medicago truncatula)
Assay: Kinetic analysis of UGT78G1 (GT83F) with (iso)flavonoid acceptor substrates, UDP-[14C]-glucose donor
Conditions: recombinant UGT78G1, donor UDP-glucose, 30° C., pH 7.0
Measured Km, listed per entry for reference.
Supply the numeric figure in µM, leaving out any unit text.

The cases that follow already have their Km on record.
COMPOUND	Km [µM]
COc1ccc(-c2coc3cc(O)cc(O)c3c2=O)cc1 [biochanin A (4′-methoxy genistein)]	11.7
O=c1c(-c2ccc(O)cc2)coc2cc(O)ccc12 [daidzein]	1.6
Oc1ccc(-c2[o+]c3cc(O)cc(O)c3cc2O)cc1 [pelargonidin]	71.8

Proceed to the following item.
The value of Km measured for the compound COc1ccc(-c2coc3cc(O)ccc3c2=O)cc1 [formononetin] turned out to be 1.5

====

Biological target: UGT78G1 (Medicago truncatula, UniProt A6XNC6)
Assay: UGT78G1 enzyme reactions with acceptor substrates, products analyzed by HPLC
Format: biochemical
Design: hexahistidine tag with thrombin cleavage site (pET28a(+)) (N); made in house; host or cells: E. coli BL21 (DE3)
VALUE_TYPE: position of glycosylation by UGT78G1

Examples with their reported position of glycosylation by UGT78G1 follow.
COMPOUND	TEST_SYSTEM	position of glycosylation by UGT78G1
O=c1c(O)c(-c2ccc(O)cc2)oc2cc(O)cc(O)c12 [kaempferol]	UGT78G1 (Medicago truncatula, UniProt A6XNC6)	3-position
COc1ccc(-c2coc3cc(O)cc(O)c3c2=O)cc1 [biochanin A (4′-methoxy genistein)]	UGT78G1 (Medicago truncatula, UniProt A6XNC6)	7-O-position
O=c1c(O)c(-c2ccc(O)c(O)c2)oc2cc(O)cc(O)c12 [quercetin]	UGT78G1 (Medicago truncatula, UniProt A6XNC6)	3-position
O=c1c(-c2ccc(O)cc2)coc2cc(O)cc(O)c12 [genistein]	UGT78G1 (Medicago truncatula, UniProt A6XNC6)	7-O-position
COc1ccc(-c2coc3cc(O)ccc3c2=O)cc1 [formononetin]	UGT78G1 (Medicago truncatula, UniProt A6XNC6)	7-O-position

// field: position of glycosylation by UGT78G1; key: O=c1cc(-c2ccc(O)cc2)oc2cc(O)cc(O)c12 [apigenin] ; value = 7-O-position

Just for reference, patent US7880059B2 is where these values come from.
